growth values, listed per item
- System: HS 578T breast
- assay method text: NCI-60 one-dose screen, 48 h (100 = growth as untreated, 0 = no growth, -100 = all killed)
- test conditions: 10 µM unless noted
About 83,000 compounds went through this panel and 20% of them were active in at least one assay; those are over-represented in the sample as a whole.
Report the value in % with no unit label.

Please review the following examples before continuing.
CCCCn1c(Cc2ccc(OC)cc2)nc2cc(OC)c(OC)cc2c1=O    94.5
COc1cc2cn3c4ccc(O)cc4[nH]c(=O)c3c2cc1OC    -11.2
COc1cccc(Cn2cc3c(c2)-c2oncc2CC3)c1    8.85
CCC(CCCN1C(=O)c2ccccc2C1=O)Nc1cc(OC)cc2c(C)ccnc12 (stereo not given)    86.7
Cc1nn(-c2ccccc2)c(N)c1N=C1NC(=O)/C(=C/c2ccc(Cl)cc2)S1    93.1
O=C1C(=O)c2ccccc2C(O)=C1CCCc1ccc(C2CCCC2)cc1    31.7
O=C(Nc1cccc2[nH]c(C(F)(F)F)nc12)c1ccc(F)cc1    77.3
COc1cc(/C=C/C(=O)c2ccc(F)cc2)ccc1OCCCCOc1cc2c(cc1OC)C(=O)N1CCCC1C=N2 (stereo not given)    6.29
CC1(C)Oc2cc3oc(=O)ccc3cc2C[C@@H]1OCCOS(=O)(=O)c1ccc(C#N)cc1    89.7

Now look at this one.
// CC(=O)OCC1O[C@@H](OC(C)=O)[C@@H](NC(=O)NS(=O)(=O)c2ccccc2)C(OC(C)=O)[C@@H]1OC(C)=O (stereo not given in full) : growth value = 109

FYI, the data here is from PubChem BioAssay (NCI).
